Values compiled from patent US20210177828A1.

Recorded IC50 values for a group of compounds are listed next.
- measurement-target: Axl (h) (Homo sapiens, UniProt P30530)
- Sequence (P30530 26-894): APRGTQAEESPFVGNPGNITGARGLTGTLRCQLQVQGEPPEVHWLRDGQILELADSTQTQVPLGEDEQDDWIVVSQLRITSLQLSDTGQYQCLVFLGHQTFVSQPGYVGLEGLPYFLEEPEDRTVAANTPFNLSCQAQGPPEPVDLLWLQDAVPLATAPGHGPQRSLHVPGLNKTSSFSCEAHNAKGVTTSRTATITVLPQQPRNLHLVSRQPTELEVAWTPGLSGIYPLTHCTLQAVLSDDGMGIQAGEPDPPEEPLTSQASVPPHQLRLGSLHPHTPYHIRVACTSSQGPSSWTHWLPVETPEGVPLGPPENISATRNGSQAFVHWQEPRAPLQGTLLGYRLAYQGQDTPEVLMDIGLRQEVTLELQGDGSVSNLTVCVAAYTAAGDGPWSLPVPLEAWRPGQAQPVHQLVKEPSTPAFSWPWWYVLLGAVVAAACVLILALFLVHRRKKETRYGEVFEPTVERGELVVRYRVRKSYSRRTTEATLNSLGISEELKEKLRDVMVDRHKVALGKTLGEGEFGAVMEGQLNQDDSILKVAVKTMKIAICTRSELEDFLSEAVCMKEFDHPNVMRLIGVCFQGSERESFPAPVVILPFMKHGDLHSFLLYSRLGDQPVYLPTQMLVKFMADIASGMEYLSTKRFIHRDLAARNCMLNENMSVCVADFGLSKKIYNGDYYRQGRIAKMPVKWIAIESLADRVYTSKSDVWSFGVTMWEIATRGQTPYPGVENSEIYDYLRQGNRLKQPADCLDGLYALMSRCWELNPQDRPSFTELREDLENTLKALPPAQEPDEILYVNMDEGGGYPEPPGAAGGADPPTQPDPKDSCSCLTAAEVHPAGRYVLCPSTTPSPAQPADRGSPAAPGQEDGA
- test-details: Enzymatic activity assay, Axl (h), [γ-33P]-ATP filter assay
- Format: biochemical
- applied-conditions: 10 μM ATP, 40 min room temperature; read-out: Inhibitory activity IC50 Axl(h)
Write it as a number; the unit nM goes unstated.

1. COc1cc2nccc(Oc3ccc(NC(=O)c4cn(C5CCOCC5)cc(-c5ccc(C)cc5)c4=O)nc3)c2cc1OC: 12
2. COc1cc2nccc(Oc3ccc(NC(=O)c4cc(CC5CCOCC5)cn(-c5ccc(F)cc5)c4=O)nc3)c2cc1OC: 31
3. COc1cc2nccc(Oc3ccc(NC(=O)c4cc(CC5CCOCC5)cn(-c5ccc(C)cc5)c4=O)nc3)c2cc1OC: 20
4. COc1cc2nccc(Oc3ccc(NC(=O)c4cn(CC5CCOCC5)cc(-c5ccc(C)cc5)c4=O)nc3)c2cc1OC: 5
5. COc1cc2nccc(Oc3ccc(NC(=O)c4cn(CC5CCOCC5)c5ccccc5c4=O)nc3)c2cc1OC: 11
6. COc1cc2nccc(Oc3cnc(NC(=O)c4nn(C5CCOCC5)cc(-c5ccc(F)cc5)c4=O)nc3)c2cc1OC: 27

Pending compound:
Exam item: API: value(readout= IC50, system= Axl (h) (Homo sapiens, UniProt P30530), query= COc1ccc(-c2cnc(N)c(-c3ccc(NC(=O)c4cc(-c5ccc(C)cc5)cn(CC5CCOCC5)c4=O)cc3)c2)cc1OC )
Marked response: 44
